- Test system: α7 integrin promoter
- assay-remarks: muscle cell-based assay: α7βgal+/− myoblasts/myotubes, LacZ reporter, β-galactosidase cleavage of FDG
- Set-up: species or system mouse
- conditions-used: Myotubes; compound at 5 uM
experimental-endpoint: Results in a α7+/− β-galactosidase assay, Myotubes, 5 uM

# compound, result-number
records = [
    ("COc1ccc(C(=O)/C=C2\\C(=O)Nc3ccccc32)cc1 [drawing 361]", "−0.04505"),
    ("NS(=O)(=O)c1ccc(NC(=O)CN2CCc3ccccc32)cc1 [drawing 446]", 0.1476),
    ("CCOc1ccc(Br)cc1S(=O)(=O)Nc1ccc(C(=O)Nc2ccccc2OC)cc1 [drawing 451]", "−0.02123"),
    ("O=C(Nc1cc(-c2nc3ccccc3s2)ccc1Cl)c1ccc2c(c1)OCO2 [drawing 418]", 0.05089),
    ("Cc1cc([N+](=O)[O-])ccc1NC(=O)C(C)N1CCN(c2ccccn2)CC1 (stereo not drawn) [drawing 393]", "−0.1042"),
    ("O=c1[nH]c(CN2CCCCC2)cc2c1C1(CCCCC1)Cc1ccccc1-2 [drawing 357]", "−0.08739"),
    ("Cc1cccc2c(/N=N/c3ccc(S(=O)(=O)Nc4ccc(Cl)cc4)cc3[N+](=O)[O-])c(O)[nH]c12 [drawing 397]", "−0.02922"),
    ("COC(=O)c1ccccc1CC(=O)CSc1nc(O)c(-c2ccccc2)c(O)n1 [drawing 458]", "−0.1993"),
    ("CC1(C)Cc2c(c(N3CCOCC3)nc3sc(C(=O)Nc4ccccc4)c(N)c23)CO1 [drawing 330]", "−0.3453"),
    ("O=C1Nc2ccccc2/C1=C\\c1ccnc2ccccc12 [drawing 318]", 0.4005),
    ("CCC(C)n1nc(O)cc1N (stereo not drawn) [drawing 433]", "−0.1063"),
    ("CC(C)c1ccc(NC(=O)CN2C(=O)c3ccccc3S2(=O)=O)cc1 [drawing 399]", 0.02954),
    ("Cc1ccc(Cn2nnc3c(O)nc(C4CCCN(C(=O)c5ccco5)C4)nc32)cc1 (stereo not drawn) [drawing 475]", "−0.2961"),
    ("CCCCN(CC)Cc1ccc(C/N=C(\\S)Nc2ccccc2F)o1 [drawing 313]", "−0.01977"),
    ("O=C1Cc2ccccc2/C1=C\\c1ccc([N+](=O)[O-])cc1 [drawing 495]", "−0.312"),
    ("COc1ccc(Cl)cc1NC(=O)c1cc(-c2cc(C)ccc2O)[nH]n1 [drawing 373]", "−0.08884"),
    ("CCc1nc(/C=C2\\C(=O)Nc3ccccc32)c[nH]1 [drawing 394]", "−0.08702"),
    ("CC(=O)Nc1ccc(NC(=O)c2cc(=O)c3cc(C)cc(C)c3o2)cc1 [drawing 388]", "−0.1165"),
]

Values compiled from patent US10028992B2.
